Source listed as BigSolDB 2.1.

conditions: in isopropanol, 308.3 K
Parameter Measured: solubility (mole fraction)
Enter a number only.

Given C(=C\c1ccccc1)/CN1CCN(C(c2ccccc2)c2ccccc2)CC1 , state its recorded solubility (mole fraction).
0.00165

----------
conditions: in isopropanol, 303.3 K
Parameter Measured: solubility (mole fraction)
Enter a number only.

Given C(=C\c1ccccc1)/CN1CCN(C(c2ccccc2)c2ccccc2)CC1 , state its recorded solubility (mole fraction).
0.00127
